- System: HIV-1 Y188L
- measurementNotes: microbe, parasite or virus in culture
- Type: cell-based, human immunodeficiency virus type 1 (HIV-1)
- testConditions: Human immunodeficiency virus 1, read-out: EC50 Y188L (nM)
Kindly supply the reported EC50 values for the records listed here.

What measured EC50 goes with Cc1ccc(Nc2nc(Nc3ccc(C#N)cc3)nc3[nH]cnc23)c2ccccc12 ?
> 100 nM

What measured EC50 goes with Cc1cc(C)c(Nc2nc(Nc3ccc(C#N)cc3)nc3[nH]ccc23)c(C)c1 ?
10 to 100 nM

What measured EC50 goes with Cc1cc(C)c(Oc2nc(Nc3ccc(C#N)cc3)nc3[nH]cnc23)c(C)c1 ?
< 10 nM

What measured EC50 goes with Cc1ccc2ccccc2c1Nc1nc(Nc2ccc(C#N)cc2)nc2[nH]cnc12 ?
> 100 nM

What measured EC50 goes with CC(=O)c1cc(C)c(Oc2nc(Nc3ccc(C#N)cc3)nc3ccn(Cc4ccccc4)c23)c(C)c1 ?
10 to 100 nM

What measured EC50 goes with Cc1cc(C#N)cc(C)c1Oc1nc(Nc2ccc(C#N)cc2)nc2c(Cl)c[nH]c12 ?
< 10 nM

What measured EC50 goes with Cc1cc(Cl)cc(C)c1Oc1nc(Nc2ccc(C#N)cc2)nc2[nH]ccc12 ?
< 10 nM

What measured EC50 goes with Cc1cc(C#N)cc(C)c1Oc1nc(Nc2ccc(C#N)cc2)nc2[nH]cnc12 ?
< 10 nM

What measured EC50 goes with COc1cc(C)cc(OC)c1Oc1nc(Nc2ccc(C#N)cc2)nc2[nH]cnc12 ?
10 to 100 nM

###

Kindly supply the reported EC50 values for the records listed here.
- Test system: HIV-1 Y181C
- measurementNotes: microbe, parasite or virus in culture
- Assay type: cell-based, human immunodeficiency virus type 1 (HIV-1)
- testConditions: Human immunodeficiency virus 1, read-out: EC50 Y181C (nM), Y181C mutant

Short answer please: EC50, HIV-1 Y181C, entry Cc1cc(Br)cc(C)c1Oc1nc(Nc2ccc(C#N)cc2)nc2[nH]ccc12
10 to 100 nM

Short answer please: EC50, HIV-1 Y181C, entry Cc1cc(C2CC2)cc(C)c1Oc1nc(Nc2ccc(C#N)cc2)nc2cc[nH]c12
< 10 nM

Short answer please: EC50, HIV-1 Y181C, entry COC(=O)c1ccc(Nc2nc(Oc3c(C)cc(C)cc3C)c3nc[nH]c3n2)cc1
> 100 nM

Short answer please: EC50, HIV-1 Y181C, entry Cc1cc(C#N)cc(C)c1Oc1nc(Nc2ccc(C#N)cc2)nc2c(Cl)c[nH]c12
< 10 nM

Short answer please: EC50, HIV-1 Y181C, entry Cc1cc(C#N)cc(C)c1Oc1nc(Nc2ccc(C#N)cc2)nc2c1ccn2C
< 10 nM

Short answer please: EC50, HIV-1 Y181C, entry Cc1cc(C)c(Oc2nc(Nc3ccc(C#N)cc3)nc3[nH]ccc23)c(C)c1
10 to 100 nM

Short answer please: EC50, HIV-1 Y181C, entry COc1cc(C)cc(OC)c1Oc1nc(Nc2ccc(C#N)cc2)nc2[nH]cnc12
< 10 nM

Short answer please: EC50, HIV-1 Y181C, entry Cc1cc(C)c(Oc2nc(Nc3ccc(C#N)cc3)nc3[nH]ncc23)c(C)c1
< 10 nM

Short answer please: EC50, HIV-1 Y181C, entry Cc1cc(Br)cc(Cl)c1Oc1nc(Nc2ccc(C#N)cc2)nc2cc[nH]c12
< 10 nM

Short answer please: EC50, HIV-1 Y181C, entry Cc1ccc2cccc(Nc3nc(Nc4ccc(C#N)cc4)nc4[nH]cnc34)c2n1
> 100 nM

Short answer please: EC50, HIV-1 Y181C, entry Cc1cc(Br)cc(Cl)c1Oc1nc(Nc2ccc(C#N)cc2)nc2[nH]ccc12
10 to 100 nM

Short answer please: EC50, HIV-1 Y181C, entry CCN(c1ccc(C#N)cc1)c1nc(Oc2c(C)cc(C#N)cc2C)c2c(ccn2CC)n1
> 100 nM

Short answer please: EC50, HIV-1 Y181C, entry Cc1cc(C2CC2)cc(C)c1Oc1nc(Nc2ccc(C#N)cc2)nc2[nH]cnc12
< 10 nM

Short answer please: EC50, HIV-1 Y181C, entry Cc1cc(C#N)cc(C)c1Oc1nc(Nc2ccc(C#N)cc2)nc2ccn(C)c12
< 10 nM

Short answer please: EC50, HIV-1 Y181C, entry Cc1cc(C#N)cc(C)c1Oc1nc(Nc2ccc(C#N)cc2)nc2[nH]ncc12
10 to 100 nM

Short answer please: EC50, HIV-1 Y181C, entry Cc1cc(C2CC2)cc(C)c1Nc1nc(Nc2ccc(C#N)cc2)nc2[nH]cnc12
< 10 nM

Short answer please: EC50, HIV-1 Y181C, entry Cc1cc(C)c(Oc2nc(Nc3ccc(C#N)cc3)nc3c(Cl)cn(C)c23)c(C)c1
10 to 100 nM

Short answer please: EC50, HIV-1 Y181C, entry Cc1cc(C)c(Oc2nc(Nc3ccc(C#N)c(C(F)(F)F)c3)nc3[nH]cnc23)c(C)c1
10 to 100 nM
